Value source: patent US20260265249A1

- METHOD SUMMARY: Influencing factor stability study (open containers; light, high temperature, high humidity; 30 days)
- Type: physicochemical
- MEASUREMENT CONDITIONS: open container, 60° C., 1 month
Reported Purity is given for each of the following compounds.
PARAMETER MEASURED: Purity (%)

>>> print(df.to_string())
                                   compound  numeric_readout
0  O=C(O)/C=C\C(=O)O.[2H]C([2H])([2H])Oc1cc(C#N)ccc1[C@@H]1C(C(N)=O)=C(C)Nc2c(C)cnc(OCC)c21 [crystal form α of maleate]             92.2
1  Br.[2H]C([2H])([2H])Oc1cc(C#N)ccc1[C@@H]1C(C(N)=O)=C(C)Nc2c(C)cnc(OCC)c21 [crystal form I of hydrobromide]             98.2
2  [2H]C([2H])([2H])Oc1cc(C#N)ccc1[C@@H]1C(C(N)=O)=C(C)Nc2c(C)cnc(OCC)c21 [crystal form A]             99.4
3  O=S(=O)(O)O.[2H]C([2H])([2H])Oc1cc(C#N)ccc1[C@@H]1C(C(N)=O)=C(C)Nc2c(C)cnc(OCC)c21 [crystal form a of sulfate]             97.9

====

- METHOD SUMMARY: Long-term/accelerated stability study (sealed in aluminum foil bags, 25° C./60% RH and 40° C./75% RH)
- Assay type: physicochemical
- MEASUREMENT CONDITIONS: 25° C.-60% RH, sealed aluminum foil bag, 2 months
Reported Purity (%) is given for each of the following compounds.
PARAMETER MEASURED: Purity (%)

>>> print(df.to_string())
                                   compound  unit_spec  numeric_readout
0  O=C(O)/C=C\C(=O)O.[2H]C([2H])([2H])Oc1cc(C#N)ccc1[C@@H]1C(C(N)=O)=C(C)Nc2c(C)cnc(OCC)c21 [crystal form α of maleate]          %             99.8
1  Br.[2H]C([2H])([2H])Oc1cc(C#N)ccc1[C@@H]1C(C(N)=O)=C(C)Nc2c(C)cnc(OCC)c21 [crystal form I of hydrobromide]          %             99.7
2  Cl.[2H]C([2H])([2H])Oc1cc(C#N)ccc1[C@@H]1C(C(N)=O)=C(C)Nc2c(C)cnc(OCC)c21 [crystal form I of hydrochloride]          %             99.3
3  O=S(=O)(O)O.[2H]C([2H])([2H])Oc1cc(C#N)ccc1[C@@H]1C(C(N)=O)=C(C)Nc2c(C)cnc(OCC)c21 [crystal form a of sulfate]          %             99.7

====

Reported Purity is given for each of the following molecules.
- METHOD SUMMARY: Influencing factor stability study (open containers; light, high temperature, high humidity; 30 days)
- Format: physicochemical
- MEASUREMENT CONDITIONS: open container, 75% RH, 1 month
PARAMETER MEASURED: Purity

>>> df
                                   molecule  result
0  Br.[2H]C([2H])([2H])Oc1cc(C#N)ccc1[C@@H]1C(C(N)=O)=C(C)Nc2c(C)cnc(OCC)c21 [crystal form I of hydrobromide]   99.6%
1  O=S(=O)(O)O.[2H]C([2H])([2H])Oc1cc(C#N)ccc1[C@@H]1C(C(N)=O)=C(C)Nc2c(C)cnc(OCC)c21 [crystal form a of sulfate]   99.7%
2  [2H]C([2H])([2H])Oc1cc(C#N)ccc1[C@@H]1C(C(N)=O)=C(C)Nc2c(C)cnc(OCC)c21 [crystal form A]   99.7%
3  O=C(O)/C=C\C(=O)O.[2H]C([2H])([2H])Oc1cc(C#N)ccc1[C@@H]1C(C(N)=O)=C(C)Nc2c(C)cnc(OCC)c21 [crystal form α of maleate]   99.8%

====

Reported Purity is given for each of the following molecules.
- METHOD SUMMARY: Influencing factor stability study (open containers; light, high temperature, high humidity; 30 days)
- Format: physicochemical
- MEASUREMENT CONDITIONS: open container, 60° C., 14 days
PARAMETER MEASURED: Purity (%)

>>> df
                                   molecule  parameter_measured  numeric_readout
0  Br.[2H]C([2H])([2H])Oc1cc(C#N)ccc1[C@@H]1C(C(N)=O)=C(C)Nc2c(C)cnc(OCC)c21 [crystal form I of hydrobromide]              Purity             99.0
1  O=S(=O)(O)O.[2H]C([2H])([2H])Oc1cc(C#N)ccc1[C@@H]1C(C(N)=O)=C(C)Nc2c(C)cnc(OCC)c21 [crystal form a of sulfate]              Purity             98.7
2  O=C(O)/C=C\C(=O)O.[2H]C([2H])([2H])Oc1cc(C#N)ccc1[C@@H]1C(C(N)=O)=C(C)Nc2c(C)cnc(OCC)c21 [crystal form α of maleate]              Purity             97.0
3  [2H]C([2H])([2H])Oc1cc(C#N)ccc1[C@@H]1C(C(N)=O)=C(C)Nc2c(C)cnc(OCC)c21 [crystal form A]              Purity             99.6
